Data provenance: patent US20230398130A1

Dose.FC.LYZ.S by entry:
Tested on: ISC-enriched organoids
Experiment: Primary screen, 384-well 2.5-D organoid differentiation (ENR+CD, 6 days): carbachol-induced lysozyme secretion (LYZ.S)
Format: cell-based, murine
Details: Dose 10.00 uM; ENR+CD, 6 days; FC vs plate median

Compound | Dose.FC.LYZ.S
NC1(Cc2ccc(Cl)cc2)CCN(c2ncnc3[nH]ccc23)CC1 [CCT128930, reference compound] | −0.201 log 2 fold change
COc1cc(Nc2ncc(F)c(Nc3ccc4c(n3)N(COP(=O)(O)O)C(=O)C(C)(C)O4)n2)cc(OC)c1OC [Fostamatinib (R788)] | −0.350 log 2 fold change
CC1C(=O)OC2C(O)C34C5CC(C(C)(C)C)C36C(OC(=O)C6O)OC4(C(=O)O5)C12O (stereo not shown) [Ginkgolide B] | −0.035 log 2 fold change
C[C@H](N[C@@H](CCc1ccccc1)C(=O)O)C(=O)N1CCC[C@H]1C(=O)O.O.O [Enalaprilat Dihydrate] | −0.281 log 2 fold change
c1ccc(CNc2nc(NCc3ccccc3)c3ccccc3n2)cc1 [DBeQ] | −0.423 log 2 fold change
CC1=C(C(=O)OC2CCCCC2)C(c2ccc([N+](=O)[O-])cc2)C2=C(CC(C)(C)CC2=O)N1 (stereo not shown) [FLI-06] | −0.170 log 2 fold change
Nc1ncnc2n[nH]c(Nc3ccc(F)cc3)c12 [CGP57380] | −0.088 log 2 fold change
CCCCCCCCc1ccc(CCC(N)(CO)CO)cc1.Cl [Fingolimod (FTY720) HCl] | −0.362 log 2 fold change
Cc1ccc([C@@H]2O[C@H](CO)[C@@H](O)[C@H](O)[C@H]2O)cc1Cc1ccc(-c2ccc(F)cc2)s1 [Canagliflozin] | −0.033 log 2 fold change
Cc1[nH]c2ccccc2c1CCNC(=O)c1cccs1 [CK-636] | −0.103 log 2 fold change
CC(C)Oc1ccc(-c2cnc3c(-c4ccnc5ccccc45)cnn3c2)cc1 [DMH1] | −0.092 log 2 fold change
O=C(Nc1cccc(Nc2ncc(Br)c(NCCc3cnc[nH]3)n2)c1)N1CCCC1 [BX-912] | −0.272 log 2 fold change
CN[C@@H](C)C(=O)N[C@H](C(=O)N1CCC[C@H]1C(=O)Nc1snnc1-c1ccccc1)C1CCCCC1 [GDC-0152] | −0.009 log 2 fold change

###

Z.LYZ.S listing for selected molecules.
Test system: ISC-enriched organoids
Test: Primary screen, 384-well 2.5-D organoid differentiation (ENR+CD, 6 days): carbachol-induced lysozyme secretion (LYZ.S)
Format: cell-based, murine
Conditions: standard z score; primary screen; 3rd of the 4 dose lines of the treatment (dose not given)
Counter-ions that a name gives are not always drawn.

Molecule | Z.LYZ.S
Cc1noc(-c2ccc(CSCCC(=O)O)cc2)c1NC(=O)OC(C)c1ccccc1Cl (stereo not drawn) | −0.135
CC(C)C[C@H](NC(=O)CNC(=O)c1cc(Cl)ccc1Cl)B(O)O | −2.280
O=[N+]([O-])C=Cc1ccc2c(c1)OCO2 | 0.124
O=C1[C@H](Cc2ccc(O)cc2)N2C(=O)CCN(C(=O)NCc3ccccc3)[C@H]2CN1Cc1cccc2ccccc12 | 0.109
COc1cc(-c2ncn(/C=C\C(=O)OC(C)C)n2)cc(C(F)(F)F)c1 | −2.085
CCc1c2c(nc3ccc(OC(=O)N4CCC(N5CCCCC5)CC4)cc13)-c1cc3c(c(=O)n1C2)COC(=O)[C@]3(O)CC [Irinotecan HCl Trihydrate] | −1.895

###

System: ISC-enriched organoids
Assay: Primary screen, 384-well 2.5-D organoid differentiation (ENR+CD, 6 days): carbachol-induced lysozyme secretion (LYZ.S)
Assay type: cell-based, murine
Details: primary screen, dose 2.00 uM, ENR+CD 6 days, FC vs plate median
We begin with a simple list: items and their reported Dose.FC.LYZ.S.

Compound | Target of assay | Dose.FC.LYZ.S [log 2 fold change]
Cc1cc([C@@H](C)Nc2ccccc2C(=O)O)c2nc(N3CCOCC3)cc(=O)n2c1 | ISC-enriched organoids | −0.114
O=C1NC(=O)/C(=C/c2ccc(-c3ccc(F)cc3O)o2)S1 | ISC-enriched organoids | −0.074
C[C@H]1COC2(CCN(c3nc(=O)c4cc(C(F)(F)F)cc([N+](=O)[O-])c4s3)CC2)O1 (racemic) [BTZ043 Racemate] | ISC-enriched organoids | 0.038
CN(C)C(=O)Nc1cccc(-c2ccc(N(C)C)cc2)c1 | ISC-enriched organoids | 0.026

###

System: ISC-enriched organoids
Test: Primary screen, 384-well 2.5-D organoid differentiation (ENR+CD, 6 days): carbachol-induced lysozyme secretion (LYZ.S)
Assay type: cell-based, murine
Conditions: primary screen, dose 0.08 uM, ENR+CD 6 days, FC vs plate median

Molecule | Dose.FC.LYZ.S, log 2 fold change
CCNC(=O)c1noc(-c2cc(C(C)C)c(O)cc2O)c1-c1ccc(CN2CCOCC2)cc1 | −0.209
CN1CCc2cc3c(cc2[C@H]1[C@@H]1OC(=O)c2c1ccc1c2OCO1)OCO3 [(+)-Bicuculline] | 0.155
O=C(/C=C/c1cccc(S(=O)(=O)Nc2ccccc2)c1)NO | −0.059
COc1cc(F)c(C(C)C)cc1-c1ccc(C(F)(F)F)cc1CN1C(=O)O[C@H](c2cc(C(F)(F)F)cc(C(F)(F)F)c2)[C@@H]1C | 0.051
C=CCNC1=C2C[C@@H](C)C[C@H](OC)[C@H](O)[C@@H](C)/C=C(\C)[C@H](OC(N)=O)[C@@H](OC)/C=C\C=C(/C)C(=O)NC(=CC1=O)C2=O | −0.282
O=C(O)c1cccc(-c2noc(-c3ccccc3F)n2)c1 | 0.051
CCN1CCN(c2ccc(Nc3cc(N(C)C(=O)Nc4c(Cl)c(OC)cc(OC)c4Cl)ncn3)cc2)CC1 | −0.036
CN(C)C(=O)Nc1cccc(-c2ccc(N(C)C)cc2)c1 | 0.028
CC(C)N(CC[C@H](c1ccccc1)c1cc(CO)ccc1O)C(C)C [5-hydroxymethyl Tolterodine (PNU 200577, 5-HMT, 5-HM)] | 0.065
O=C(O)C(Cc1ccccc1[N+](=O)[O-])=NNc1nc(-c2ccc(Cl)c(Cl)c2)cs1 (mixture of isomers) | −0.037
O=C(Oc1cc(S(=O)(=O)c2ccccc2)ccc1[N+](=O)[O-])c1ccc(Cl)cc1 | 0.222
CC(C)CCN1c2nc(Nc3cc(F)c(O)c(F)c3)ncc2N(C)C(=O)C1C (centres unmarked) | 0.162
CC(C)N(CC[C@H](c1ccccc1)c1cc(CO)ccc1O)C(C)C [4CE°8C] | 0.032
O=C(c1ccc(F)cc1)N1CCC[C@H](c2nc(-c3ccc(F)cc3)no2)C1 | 0.147

###

In this section we review reported Dose.FC.CTG (log 2 fold change, ATP) values for a set of compounds.
Test system: ISC-enriched organoids
Experiment: Primary screen, 384-well 2.5-D organoid differentiation (ENR+CD, 6 days, Target Selective Inhibitor Library, vs whole-plate median): ATP (CellTiter-Glo 3D, CTG)
Settings: dose 10.00 uM; vs plate median
Parameter measured: Dose.FC.CTG (log 2 fold change, ATP)

Compound | Parameter measured | Endpoint result
C[C@]1(c2nc3c(C(N)=O)cccc3[nH]2)CCCN1 | Dose.FC.CTG (log 2 fold change, ATP) | −0.218
Cc1cc(Nc2cc(N3CCN(C)CC3)nc(Sc3ccc(NC(=O)C4CC4)cc3)n2)n[nH]1 | Dose.FC.CTG (log 2 fold change, ATP) | −0.959
C[C@H](Cn1cnc2c(N)ncnc21)OCP(=O)(O)O | Dose.FC.CTG (log 2 fold change, ATP) | −0.337
CC(C)C[C@@H](C(=O)N[C@H](C(=O)OC1CCCC1)c1ccccc1)[C@H](O)C(=O)NO | Dose.FC.CTG (log 2 fold change, ATP) | −0.468
COc1nc(C)cnc1NS(=O)(=O)c1cccnc1-c1ccc(-c2nnco2)cc1 [Zibotentan (ZD4054)] | Dose.FC.CTG (log 2 fold change, ATP) | −0.001
Cl.N[C@@H]1C[C@H]1c1ccccc1 (racemic) [Tranylcypromine (2-PCPA) HCl] | Dose.FC.CTG (log 2 fold change, ATP) | −0.533
Nc1cccc(-c2cc3c(Oc4cccc(O)c4)ncnc3[nH]2)c1 | Dose.FC.CTG (log 2 fold change, ATP) | −1.200
COc1ccc2cc(-c3nc(-c4ccc([S+](C)[O-])cc4)[nH]c3-c3ccncc3)ccc2c1 (centres unmarked) | Dose.FC.CTG (log 2 fold change, ATP) | −0.549

###

Test system: ISC-enriched organoids
Test: Primary screen, 384-well 2.5-D organoid differentiation (ENR+CD, 6 days): basal lysozyme secretion (LYZ.NS)
Assay type: cell-based, murine
Conditions: strictly standardized mean difference; primary screen; 3rd of the 4 dose lines of the treatment (dose not given)
Structures can show the parent of a compound that is named as a salt.
Quick rule for you: SSMD.LYZ.NS under -0.05 gets True, anything else gets False.

Molecule | Classification
COc1cc(-c2ncn(/C=C\C(=O)OC(C)C)n2)cc(C(F)(F)F)c1 | True
CC(C)c1ccc(NC(=O)Cn2cnc3c2c(=O)n(C)c(=O)n3C)cc1 | False
CCOC(=O)[C@H](CCc1ccccc1)N[C@@H](C)C(=O)N1C(=O)N(C)C[C@H]1C(=O)O [Imidapril HCl] | False
NC(=O)c1ccc(I)c([N+](=O)[O-])c1 | False
CCN1CCC[C@H]1CNC(=O)c1cc(S(N)(=O)=O)ccc1OC [Levosulpiride] | False
CCC(CC)(NC(=O)C(C)C)C(=O)N[C@@H](CCCN=C(N)N)C(=O)NC1(C(=O)NC(c2ccc(F)cc2)c2ccc(F)cc2)CCCC1 | False
Clc1ccc(N/N=C(\c2ccccc2)c2ccccn2)nc1 | False
Cc1cc(Nc2ncc(Cl)c(Nc3ccccc3S(=O)(=O)C(C)C)n2)c(OC(C)C)cc1C1CCNCC1 | True
